Just for reference, ChEMBL document CHEMBL5034004 is where these values come from.

# System under test: 3',5'-cyclic-AMP phosphodiesterase 4B (Homo sapiens)
# Sequence (Q07343 whole entry): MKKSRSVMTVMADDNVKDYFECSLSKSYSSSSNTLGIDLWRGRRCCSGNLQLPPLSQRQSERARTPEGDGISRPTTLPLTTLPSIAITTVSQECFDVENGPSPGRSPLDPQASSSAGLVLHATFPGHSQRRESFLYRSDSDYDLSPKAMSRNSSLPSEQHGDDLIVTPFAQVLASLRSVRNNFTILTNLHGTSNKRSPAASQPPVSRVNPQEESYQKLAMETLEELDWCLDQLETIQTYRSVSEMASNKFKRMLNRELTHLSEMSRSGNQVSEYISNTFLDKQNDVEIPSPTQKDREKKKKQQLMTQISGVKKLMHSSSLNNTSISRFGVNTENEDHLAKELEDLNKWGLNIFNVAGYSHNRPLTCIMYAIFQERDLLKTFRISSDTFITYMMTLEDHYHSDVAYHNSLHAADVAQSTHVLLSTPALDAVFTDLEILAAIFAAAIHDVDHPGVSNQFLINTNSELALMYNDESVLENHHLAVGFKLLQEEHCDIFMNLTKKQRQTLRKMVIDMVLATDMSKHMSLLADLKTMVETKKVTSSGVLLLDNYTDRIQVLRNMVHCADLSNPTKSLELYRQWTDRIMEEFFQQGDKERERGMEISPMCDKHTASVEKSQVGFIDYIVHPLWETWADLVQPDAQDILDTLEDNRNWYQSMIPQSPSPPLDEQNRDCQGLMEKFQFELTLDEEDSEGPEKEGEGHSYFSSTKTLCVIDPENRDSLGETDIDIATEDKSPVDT
# Test: Inhibition of human recombinant PDE4B2 assessed as […] in cAMP level incubated for 2 hrs by LANCE Ultra cAMP TR-FRET assay
IC50 overview
Readout name: IC50 (nM)

[
  {
    "Molecule": "COc1ccc([C@H](Cc2c(Cl)c[n+]([O-])cc2Cl)OC(=O)c2ccc(CN(C(=O)O[C@H]3CN4CCC3CC4)c3ccccn3)s2)cc1OC",
    "System under test": "3',5'-cyclic-AMP phosphodiesterase 4B (Homo sapiens)",
    "Readout name": "IC50",
    "Value reported": 0.631
  },
  {
    "Molecule": "COc1ccc([C@H](Cc2c(Cl)c[n+]([O-])cc2Cl)OC(=O)c2ccc(CNC(C(=O)OC3C[C@H]4CC[C@H](C3)N4C)c3ccccc3)s2)cc1OC (stereo in doubt; 91d)",
    "System under test": "3',5'-cyclic-AMP phosphodiesterase 4B (Homo sapiens)",
    "Readout name": "IC50",
    "Value reported": 1
  },
  {
    "Molecule": "COc1ccc([C@H](Cc2c(Cl)c[n+]([O-])cc2Cl)OC(=O)c2ccc(CNC(C(=O)O[C@H]3CN4CCC3CC4)c3ccccc3)s2)cc1OC (stereo in doubt; 91a)",
    "System under test": "3',5'-cyclic-AMP phosphodiesterase 4B (Homo sapiens)",
    "Readout name": "IC50",
    "Value reported": 1.58
  },
  {
    "Molecule": "COc1ccc([C@H](Cc2c(Cl)c[n+]([O-])cc2Cl)OC(=O)c2ccc(CNC(C(=O)OCCN(C)C)c3ccccc3)s2)cc1OC (stereo in doubt; 92j)",
    "System under test": "3',5'-cyclic-AMP phosphodiesterase 4B (Homo sapiens)",
    "Readout name": "IC50",
    "Value reported": 0.631
  }
]
